Where do these numbers come from? They come from ChEMBL document CHEMBL4680337.

# tgt: P2X purinoceptor 7 (Mus musculus)
# assay_protocol: Antagonist activity at P2X7R in mouse N2a cells assessed as reduction in ATP-induced calcium influx at 5 uM incubated for 1 hr by Fura-2AM dye based spectrofluorometry relative to control
# Format: cell-based
Provide the reported inhibition of each item.

For Clc1cccc(-c2nnnn2Cc2cccnc2)c1Cl on P2X purinoceptor 7 (Mus musculus), measured inhibition was 90%

// returns inhibition for COC1=C(S[C@@H]2O[C@H](CO)[C@@H](O)[C@H](O)[C@H]2O)C(=O)c2ccccc2C1=O with P2X purinoceptor 7 (Mus musculus); value = 15.1%

For the molecule O=C1C2=C(S[C@H]3O[C@@H](CO)[C@H](O)[C@@H](O)[C@@H]3O2)C(=O)c2ccccc21 , the measured inhibition on P2X purinoceptor 7 (Mus musculus) was 32.7%

Observed inhibition, P2X purinoceptor 7 (Mus musculus), Cc1c(C)c(O)c2c(c1O)C(=O)C1=C(S[C@H]3O[C@@H](CO)[C@H](O)[C@@H](O)[C@@H]3O1)C2=O : 36%
